- SYSTEM_NAME: DDR1 (Homo sapiens)
- Construct: purchased Reaction Biology
- Sequence (Q08345 19-913): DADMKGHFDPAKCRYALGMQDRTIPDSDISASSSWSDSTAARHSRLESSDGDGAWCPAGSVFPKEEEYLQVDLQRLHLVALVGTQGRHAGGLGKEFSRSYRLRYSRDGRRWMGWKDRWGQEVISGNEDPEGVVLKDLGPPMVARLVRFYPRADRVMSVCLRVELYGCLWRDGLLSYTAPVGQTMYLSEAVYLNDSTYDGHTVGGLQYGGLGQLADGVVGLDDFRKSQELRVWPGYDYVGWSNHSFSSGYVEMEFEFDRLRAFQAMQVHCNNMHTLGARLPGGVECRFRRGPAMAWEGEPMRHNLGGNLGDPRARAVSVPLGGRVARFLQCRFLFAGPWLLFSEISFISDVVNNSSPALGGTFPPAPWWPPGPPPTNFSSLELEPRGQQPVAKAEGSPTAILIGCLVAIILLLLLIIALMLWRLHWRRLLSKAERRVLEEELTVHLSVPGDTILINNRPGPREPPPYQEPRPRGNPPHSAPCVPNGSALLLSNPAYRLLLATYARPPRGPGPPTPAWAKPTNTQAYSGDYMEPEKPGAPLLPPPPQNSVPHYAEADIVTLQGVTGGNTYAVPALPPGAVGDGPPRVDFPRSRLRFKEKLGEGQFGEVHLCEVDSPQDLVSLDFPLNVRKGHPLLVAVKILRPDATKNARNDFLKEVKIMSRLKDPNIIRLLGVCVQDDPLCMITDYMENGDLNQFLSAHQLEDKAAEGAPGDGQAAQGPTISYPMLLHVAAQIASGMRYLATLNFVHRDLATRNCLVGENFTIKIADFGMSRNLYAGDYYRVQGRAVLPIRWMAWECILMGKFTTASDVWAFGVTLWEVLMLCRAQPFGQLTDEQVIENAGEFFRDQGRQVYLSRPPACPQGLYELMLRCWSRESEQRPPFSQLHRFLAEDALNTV
- ASSAY_INFO: HotSpot radiometric kinase assay (Reaction Biology), DDR1
- Type: biochemical
- MEASUREMENT_SETUP: 200 nM kinase, substrate IRS1tide 20 μM, 33P-ATP, 120 minutes at room temperature
MEASURED_ATTRIBUTE: pIC50
Answers are plain numbers, as −log10 of the molar value.

CN1CCN(c2ccc(-c3cnc4c(-c5ccccc5)coc4c3)cc2)CC1 = 6.85
CN1CCN(c2ccc(-c3cnc4c(-c5ccccc5)c(-c5ccncc5)oc4c3)cc2)CC1 = 7.15
CN1CCN(c2ccc(-c3cnc4c(-c5cccc(CO)c5)coc4c3)cc2)CC1 = 6.79
CN1CCN(c2ccc(-c3cnc4c(Cc5ccccc5)coc4c3)cc2)CC1 = 6.21

Fill blank: measured pIC50 of the molecule COc1ccc(-c2coc3cc(-c4ccc(N5CCN(C)CC5)cc4)cnc23)cn1 is ____.
6.58

---

// each record: one item and its pIC50 for DDR1 (Homo sapiens, UniProt Q08345)
Numbers only, as −log10 of the molar value.

// below: answered compounds
CN1CCN(c2ccc(-c3cnc4c(-c5ccc(C#N)cc5)coc4c3)cc2)CC1 = 6.70
CCCc1oc2cc(-c3ccc(N4CCN(C)CC4)cc3)cnc2c1-c1ccccc1 = 7.10
CCCCOC(=O)c1cccc(-c2coc3cc(-c4ccc(N5CCNCC5)cc4)cnc23)c1 = 6.52
Cc1nn(C)cc1-c1coc2cc(-c3ccc(N4CCN(C)CC4)cc3)cnc12 = 6.44
CC(C)(C)Sc1cccc(-c2coc3cc(-c4ccc(N5CCNCC5)cc4)cnc23)c1 = 6.23

Batch request: pIC50 for each of the following compounds.
1. CN1CCN(c2ccc(-c3cnc4c(-c5cccc(CC(N)=O)c5)coc4c3)cc2)CC1
2. CC(=O)OCc1cccc(-c2coc3cc(-c4ccc(N5CCN(C)CC5)cc4)cnc23)c1

1. 6.80
2. 6.81

---

- SYSTEM_NAME: FLT3 (Homo sapiens)
- Sequence (P36888 27-993): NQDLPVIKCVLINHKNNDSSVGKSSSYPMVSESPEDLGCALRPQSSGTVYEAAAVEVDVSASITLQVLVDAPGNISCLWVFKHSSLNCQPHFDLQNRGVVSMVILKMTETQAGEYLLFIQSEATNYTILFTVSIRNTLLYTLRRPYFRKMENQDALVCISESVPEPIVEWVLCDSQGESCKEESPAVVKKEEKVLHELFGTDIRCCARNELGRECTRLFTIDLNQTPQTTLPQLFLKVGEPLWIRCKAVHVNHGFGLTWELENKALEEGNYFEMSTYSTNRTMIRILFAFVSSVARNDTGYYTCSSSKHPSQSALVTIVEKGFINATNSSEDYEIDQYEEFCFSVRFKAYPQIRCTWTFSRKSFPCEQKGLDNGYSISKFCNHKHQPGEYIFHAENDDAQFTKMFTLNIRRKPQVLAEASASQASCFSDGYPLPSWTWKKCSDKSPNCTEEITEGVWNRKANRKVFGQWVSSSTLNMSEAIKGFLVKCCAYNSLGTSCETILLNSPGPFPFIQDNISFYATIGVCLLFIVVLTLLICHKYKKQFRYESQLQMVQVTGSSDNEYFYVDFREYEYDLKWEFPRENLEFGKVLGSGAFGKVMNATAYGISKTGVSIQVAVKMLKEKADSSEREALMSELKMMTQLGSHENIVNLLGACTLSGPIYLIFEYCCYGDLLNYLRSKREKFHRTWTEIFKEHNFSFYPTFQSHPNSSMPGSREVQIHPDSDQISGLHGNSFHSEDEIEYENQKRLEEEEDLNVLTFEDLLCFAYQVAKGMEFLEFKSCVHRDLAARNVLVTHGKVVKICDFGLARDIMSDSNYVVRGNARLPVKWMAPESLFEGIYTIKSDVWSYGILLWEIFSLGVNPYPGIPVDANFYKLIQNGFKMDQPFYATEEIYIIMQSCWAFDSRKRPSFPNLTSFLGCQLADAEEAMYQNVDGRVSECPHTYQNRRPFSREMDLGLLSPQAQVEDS
Please provide measured pIC50 for the entries that follow.
Numbers only, as −log10 of the molar value.

Below is a list of compounds. For each, state its recorded pIC50.
1. COc1ccc(-c2coc3cc(-c4ccc(N5CCN(C)CC5)cc4)cnc23)cc1
2. CN(C)C(=O)c1cccc(-c2coc3cc(-c4ccc(N5CCNCC5)cc4)cnc23)c1
3. c1cc(SC2CCC2)cc(-c2coc3cc(-c4ccc(N5CCNCC5)cc4)cnc23)c1

1. 6.85
2. 6.68
3. 6.82

Returns the measured pIC50 for the input compound. Input: c1ccc(Nc2cnc3c(-c4ccncc4)coc3c2)cc1
6.86

---

- SYSTEM_NAME: KHS/MAP4K5 (Homo sapiens, UniProt Q9Y4K4)
- Sequence (Q9Y4K4 whole entry): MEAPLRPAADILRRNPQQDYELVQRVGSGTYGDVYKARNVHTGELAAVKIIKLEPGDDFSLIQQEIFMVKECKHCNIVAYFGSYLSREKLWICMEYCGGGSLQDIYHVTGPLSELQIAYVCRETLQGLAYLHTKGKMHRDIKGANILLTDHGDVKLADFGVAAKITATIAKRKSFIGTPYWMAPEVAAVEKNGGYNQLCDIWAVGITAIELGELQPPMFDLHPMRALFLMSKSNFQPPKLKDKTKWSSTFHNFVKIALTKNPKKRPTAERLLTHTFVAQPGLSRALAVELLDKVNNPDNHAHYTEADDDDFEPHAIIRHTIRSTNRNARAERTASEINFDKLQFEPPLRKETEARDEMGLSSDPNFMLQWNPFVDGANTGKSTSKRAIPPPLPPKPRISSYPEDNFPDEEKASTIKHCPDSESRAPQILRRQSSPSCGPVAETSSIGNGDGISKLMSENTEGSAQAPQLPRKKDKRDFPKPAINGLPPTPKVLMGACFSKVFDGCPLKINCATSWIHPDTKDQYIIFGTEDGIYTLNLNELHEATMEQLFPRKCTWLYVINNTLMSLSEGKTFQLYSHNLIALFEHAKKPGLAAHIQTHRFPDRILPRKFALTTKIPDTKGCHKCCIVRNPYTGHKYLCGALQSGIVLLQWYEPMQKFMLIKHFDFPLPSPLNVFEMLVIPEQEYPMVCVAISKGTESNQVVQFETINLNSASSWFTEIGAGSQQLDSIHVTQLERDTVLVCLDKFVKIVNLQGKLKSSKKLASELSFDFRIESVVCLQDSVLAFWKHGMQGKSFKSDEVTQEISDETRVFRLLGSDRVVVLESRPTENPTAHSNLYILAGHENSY
- ASSAY_INFO: HotSpot radiometric kinase assay (Reaction Biology), KHS/MAP4K5
- MEASUREMENT_SETUP: 1.5 nM kinase, substrate MBP 20 μM, 33P-ATP, 120 minutes at room temperature
So basically every entry gets a class from its IC50, ranges being label 0 (below 400 nM), label 1 (400 nM to below 900 nM), label 2 (900 nM or more)

Cn1cc(-c2coc3cc(-c4ccc(N5CCNCC5)cc4)cnc23)cn1 = label 1
CNc1cccc(-c2coc3cc(-c4ccc(N5CCN(C)CC5)cc4)cnc23)c1 = label 2
NCc1cccc(-c2coc3cc(-c4ccc(N5CCNCC5)cc4)cnc23)c1 = label 1
Fc1ccc(-c2coc3cc(-c4ccc(N5CCNCC5)cc4)cnc23)cc1 = label 1
CN1CCN(c2ccc(-c3cnc4c(-c5cc(C(N)=O)ccc5F)coc4c3)cc2)CC1 = label 0

// switching to the query compound
Into which bin does this compound go? CN1CCN(c2ccc(-c3cnc4c(Oc5ccccc5)coc4c3)cc2)CC1
label 0

All values here come from patent US20250352550A1.
